B1: glmS ribozyme (parent)
chain: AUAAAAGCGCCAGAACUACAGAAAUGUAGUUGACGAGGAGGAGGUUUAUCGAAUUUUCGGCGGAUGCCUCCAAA

Variants of: B1
EXPERIMENT SUMMARY: self-cleavage kobs at 160 uM GlcN6P; higher = faster cleavage; RNA array
CONDITION SUMMARY: with glucosamine-6-phosphate
Fewer inactive variants are shown than the library holds.
QUANTITY MEASURED: self-cleavage kobs at 160 uM GlcN6P (s⁻¹)
Report the value in s⁻¹ with no unit label.

Requested field: self-cleavage kobs at 160 uM GlcN6P. Item: G41U U47G
3.94e-05

Ok, now A39U C71A
0.000353

Ok, now G40U U46C
9.14e-05

Ok, now A52G C70G
5.53e-05

Ok, now U69C C70U
0.000108

Ok, now G40A U65A
7.08e-05

These measurements were taken from the supplement of paper PMC7125110.
